Cited source for all entries: paper PMC11597202

# ASSAY NOTES: In vitro cytotoxic assay, MDA-MB-231; note: 0.1-25 µM tested
# Type: cell-based
# CONDITION: human, MDA-MB-231 cells (breast cancer cell line); read-out: In vitro cytotoxic activity IC50, MBA-MB-231
# maps each entry to its IC50 at 48 h
Output spec: scalar in µM, unitless text.

Worked cases, IC50 at 48 h given:
compound="COc1cccc2c1C(=O)c1c(O)c3c(c(O)c1C2=O)C[C@@](O)(C(=O)CO)C[C@@H]3O[C@H]1C[C@H](N)[C@H](O)[C@H](C)O1 [Doxo, Doxorubicin, reference compound]" data_value=0.02
compound=COC(=N)c1nc2cc3ncn(Cc4ccccc4)c(=O)c3cc2s1 data_value=3
compound="CC(=O)O[C@H]1C(=O)[C@@]2(C)[C@H]([C@H](OC(=O)c3ccccc3)[C@]3(O)C[C@H](OC(=O)[C@H](O)[C@@H](NC(=O)c4ccccc4)c4ccccc4)C(C)=C1C3(C)C)[C@]1(OC(C)=O)CO[C@@H]1C[C@@H]2O [Taxol, reference compound]" data_value=0.01
compound=N#Cc1nc2c(ccc3c(=O)n(Cc4ccccc4)cnc32)s1 data_value=24
compound=COC(=N)c1nc2c(ccc3c(=O)n(Cc4ccccc4)cnc32)s1 data_value=13

Reported IC50 at 48 h of COC(=N)c1nc2ccc3ncn(Cc4ccccc4)c(=O)c3c2s1 [Compound I, reference compound] : 21

# IC50 at 48 h of COC(=N)c1nc2ccc3ncnc(Nc4ccc(OC)cc4F)c3c2s1 [Compound II, reference compound] = 5

Sure, the documented IC50 at 48 h for "N#Cc1nc2cc3ncn(Cc4ccccc4)c(=O)c3cc2s1" is 3

Measured IC50 at 48 h of "N#Cc1nc2ccc3c(=O)n(Cc4ccccc4)cnc3c2s1" : 14

So for "COC(=N)c1nc2ccc3c(=O)n(Cc4ccccc4)cnc3c2s1" , the logged IC50 at 48 h turned out to be 11

Value of IC50 at 48 h reported for the compound "COC(=N)c1nc2cc3c(=O)n(Cc4ccccc4)cnc3cc2s1" is 20

Value of IC50 at 48 h reported for the compound COC(=N)c1nc2cc3c(Nc4ccc(OC)cc4F)ncnc3cc2s1 [Compound 15a] is 9

* * *

# TARGET UNDER TEST: CDK9/CyclinT (Homo sapiens)
# Construct: host or cells: Sf9 insect cells (baculovirus)
# Sequence (P50750 whole entry): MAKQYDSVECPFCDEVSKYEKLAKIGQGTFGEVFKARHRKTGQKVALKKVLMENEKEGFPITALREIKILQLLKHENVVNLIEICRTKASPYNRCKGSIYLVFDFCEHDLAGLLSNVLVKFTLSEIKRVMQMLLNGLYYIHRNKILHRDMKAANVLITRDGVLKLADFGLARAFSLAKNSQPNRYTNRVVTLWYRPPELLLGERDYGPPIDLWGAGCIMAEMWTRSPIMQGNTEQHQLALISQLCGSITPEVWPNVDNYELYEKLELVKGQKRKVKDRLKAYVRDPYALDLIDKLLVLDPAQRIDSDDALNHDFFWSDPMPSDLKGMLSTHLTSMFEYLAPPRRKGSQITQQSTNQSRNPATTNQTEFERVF
# Sequence (O60563 whole entry partner): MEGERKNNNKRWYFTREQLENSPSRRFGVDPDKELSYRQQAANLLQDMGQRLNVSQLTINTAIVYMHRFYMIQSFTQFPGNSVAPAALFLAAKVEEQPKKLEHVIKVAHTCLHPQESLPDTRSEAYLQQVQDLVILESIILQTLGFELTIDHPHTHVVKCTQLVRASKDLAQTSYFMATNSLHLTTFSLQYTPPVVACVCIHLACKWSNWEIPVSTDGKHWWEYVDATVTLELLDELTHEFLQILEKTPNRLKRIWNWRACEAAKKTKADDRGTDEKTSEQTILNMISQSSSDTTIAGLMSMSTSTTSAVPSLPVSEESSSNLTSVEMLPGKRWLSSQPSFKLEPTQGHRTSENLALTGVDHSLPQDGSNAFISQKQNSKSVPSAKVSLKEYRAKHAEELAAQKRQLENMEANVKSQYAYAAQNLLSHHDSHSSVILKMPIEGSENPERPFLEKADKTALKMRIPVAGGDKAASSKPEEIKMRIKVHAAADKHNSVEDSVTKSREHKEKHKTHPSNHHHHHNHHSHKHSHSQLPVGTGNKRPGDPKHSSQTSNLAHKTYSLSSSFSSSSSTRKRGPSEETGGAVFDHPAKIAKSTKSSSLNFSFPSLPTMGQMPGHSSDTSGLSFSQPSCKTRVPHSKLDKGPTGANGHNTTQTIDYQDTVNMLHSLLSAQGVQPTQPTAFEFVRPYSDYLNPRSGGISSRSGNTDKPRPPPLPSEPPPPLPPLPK
# ASSAY NOTES: ADP-Glo kinase inhibition assay, CDK9/CyclinT
# Assay type: biochemical
# CONDITION: 10 μM compound; percentage of maximum activity of the DMSO control; mean n = 2; 10 µM ATP; read-out: Residual activity CDK9/CyclinT
Checkbox rule: remaining activity at 10 µM lower than 90% = Criterion met; remaining activity at 10 µM not lower than 90% = Criterion not met.

Solved cases (2 shown):
molecule=COC(=N)c1nc2ccc3c(=O)n(Cc4ccccc4)cnc3c2s1 class="Criterion not met"
molecule=COC(=N)c1nc2cc3c(=O)n(Cc4ccccc4)cnc3cc2s1 class="Criterion not met"

A record lists COC(=N)c1nc2cc3c(Nc4ccc(OC)cc4F)ncnc3cc2s1 [Compound 15a] . Is its remaining activity at 10 µM below 90%?
Criterion not met

Below 90% on remaining activity at 10 µM? Entry "COC(=N)c1nc2cc3ncn(Cc4ccccc4)c(=O)c3cc2s1"
Criterion not met

* * *

# TARGET UNDER TEST: DYRK1A (Homo sapiens, UniProt Q13627)
# Construct: host or cells: Sf9 insect cells (baculovirus)
# ASSAY NOTES: ADP-Glo kinase inhibition assay, DYRK1A
# Type: biochemical
# CONDITION: 1 μM compound; percentage of maximum activity of the DMSO control; mean n = 2; 10 µM ATP; read-out: Residual activity DYRK1A
VALUE KIND: remaining activity at 1 µM (%)
State the answer as a number, implicitly in %.

Answered cases to consult:
molecule="COC(=N)c1nc2ccc3ncn(Cc4ccccc4)c(=O)c3c2s1 [Compound I, reference compound]" target_under_test="DYRK1A (Homo sapiens, UniProt Q13627)" value_kind="remaining activity at 1 µM" result_unit=% data_value=62
molecule="COC(=N)c1nc2cc3c(Nc4ccc(OC)cc4F)ncnc3cc2s1 [Compound 15a]" target_under_test="DYRK1A (Homo sapiens, UniProt Q13627)" value_kind="remaining activity at 1 µM" result_unit=% data_value=72
molecule="COC(=N)c1nc2c(ccc3c(=O)n(Cc4ccccc4)cnc32)s1 [Compound 6c]" target_under_test="DYRK1A (Homo sapiens, UniProt Q13627)" value_kind="remaining activity at 1 µM" result_unit=% data_value=100
molecule="COC(=N)c1nc2ccc3c(=O)n(Cc4ccccc4)cnc3c2s1 [Compound 6d]" target_under_test="DYRK1A (Homo sapiens, UniProt Q13627)" value_kind="remaining activity at 1 µM" result_unit=% data_value=83
molecule="COC(=N)c1nc2cc3c(=O)n(Cc4ccccc4)cnc3cc2s1 [Compound 6a]" target_under_test="DYRK1A (Homo sapiens, UniProt Q13627)" value_kind="remaining activity at 1 µM" result_unit=% data_value=100
molecule="COC(=N)c1nc2cc3ncnc(Nc4ccc(OC)cc4F)c3cc2s1 [Compound 15b]" target_under_test="DYRK1A (Homo sapiens, UniProt Q13627)" value_kind="remaining activity at 1 µM" result_unit=% data_value=95

Now look at this one.
COC(=N)c1nc2cc3ncn(Cc4ccccc4)c(=O)c3cc2s1 [Compound 6b] yielded remaining activity at 1 µM of 103

* * *

# TARGET UNDER TEST: CK-1ε (Homo sapiens, UniProt P49674)
# Construct: host or cells: Sf9 insect cells (baculovirus)
# Sequence (P49674 whole entry): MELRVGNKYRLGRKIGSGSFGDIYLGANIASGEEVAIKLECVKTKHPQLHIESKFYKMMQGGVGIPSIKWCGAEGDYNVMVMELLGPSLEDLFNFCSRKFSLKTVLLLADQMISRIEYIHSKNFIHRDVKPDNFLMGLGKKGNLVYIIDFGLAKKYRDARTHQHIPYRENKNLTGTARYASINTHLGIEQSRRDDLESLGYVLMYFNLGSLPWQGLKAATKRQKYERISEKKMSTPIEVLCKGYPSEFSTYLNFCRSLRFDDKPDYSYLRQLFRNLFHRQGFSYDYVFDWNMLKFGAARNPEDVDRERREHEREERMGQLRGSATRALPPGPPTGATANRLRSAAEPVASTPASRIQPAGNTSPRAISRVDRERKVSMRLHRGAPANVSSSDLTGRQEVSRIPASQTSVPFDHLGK
# ASSAY NOTES: ADP-Glo kinase inhibition assay, CK-1ε
# Type: biochemical
# CONDITION: 1 μM compound; percentage of maximum activity of the DMSO control; mean n = 2; 10 µM ATP; read-out: Residual activity CK-1ε
Each entry below carries its reported remaining activity at 1 µM.
Write it as a number; the unit % goes unstated.

compound="COC(=N)c1nc2cc3ncn(Cc4ccccc4)c(=O)c3cc2s1 [Compound 6b]" value_kind="remaining activity at 1 µM" data_value=111
compound="COC(=N)c1nc2cc3ncnc(Nc4ccc(OC)cc4F)c3cc2s1 [Compound 15b]" value_kind="remaining activity at 1 µM" data_value=98
compound="COC(=N)c1nc2ccc3ncn(Cc4ccccc4)c(=O)c3c2s1 [Compound I, reference compound]" value_kind="remaining activity at 1 µM" data_value=92
compound="COC(=N)c1nc2ccc3c(=O)n(Cc4ccccc4)cnc3c2s1 [Compound 6d]" value_kind="remaining activity at 1 µM" data_value=92
compound="COC(=N)c1nc2cc3c(Nc4ccc(OC)cc4F)ncnc3cc2s1 [Compound 15a]" value_kind="remaining activity at 1 µM" data_value=95
compound="COC(=N)c1nc2cc3c(=O)n(Cc4ccccc4)cnc3cc2s1 [Compound 6a]" value_kind="remaining activity at 1 µM" data_value=100

# input for lookup
Entry COC(=N)c1nc2c(ccc3c(=O)n(Cc4ccccc4)cnc32)s1 [Compound 6c] , remaining activity at 1 µM reported as 112

* * *

# TARGET UNDER TEST: GSK-3β (Homo sapiens, UniProt P49841)
# Construct: host or cells: Sf9 insect cells (baculovirus)
# Sequence (P49841 whole entry): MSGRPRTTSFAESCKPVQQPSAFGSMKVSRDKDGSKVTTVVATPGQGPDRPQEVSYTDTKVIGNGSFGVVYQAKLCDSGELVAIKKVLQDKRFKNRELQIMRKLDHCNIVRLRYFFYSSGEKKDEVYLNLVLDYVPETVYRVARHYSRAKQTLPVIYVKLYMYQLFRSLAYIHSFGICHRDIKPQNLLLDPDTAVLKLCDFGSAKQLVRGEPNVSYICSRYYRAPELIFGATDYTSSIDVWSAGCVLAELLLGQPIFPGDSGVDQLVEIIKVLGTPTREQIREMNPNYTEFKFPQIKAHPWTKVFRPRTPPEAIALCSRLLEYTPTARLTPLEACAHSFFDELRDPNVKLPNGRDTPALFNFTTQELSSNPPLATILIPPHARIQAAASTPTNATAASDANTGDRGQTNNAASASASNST
# ASSAY NOTES: ADP-Glo kinase inhibition assay, GSK-3β
# Format: biochemical
# CONDITION: 1 μM compound; percentage of maximum activity of the DMSO control; mean n = 2; 10 µM ATP; read-out: Residual activity GSK-3β
Reported remaining activity at 1 µM values are given for each entry in this list.
Dear colleague, please return just the value in %, with no unit written.

Some solved cases for reference:
compound="COC(=N)c1nc2ccc3ncn(Cc4ccccc4)c(=O)c3c2s1 [Compound I, reference compound]" data_value=73
compound=COC(=N)c1nc2cc3ncn(Cc4ccccc4)c(=O)c3cc2s1 data_value=101
compound=COC(=N)c1nc2ccc3c(=O)n(Cc4ccccc4)cnc3c2s1 data_value=94

Per the records, this compound ( COC(=N)c1nc2cc3ncnc(Nc4ccc(OC)cc4F)c3cc2s1 [Compound 15b] ) has remaining activity at 1 µM equal to 101

In plain terms, COC(=N)c1nc2cc3c(Nc4ccc(OC)cc4F)ncnc3cc2s1 [Compound 15a] has a documented remaining activity at 1 µM of 90

The recorded remaining activity at 1 µM for "COC(=N)c1nc2c(ccc3c(=O)n(Cc4ccccc4)cnc32)s1" is 81

According to the records, this compound "COC(=N)c1nc2cc3c(=O)n(Cc4ccccc4)cnc3cc2s1" displays remaining activity at 1 µM of 94

* * *

# ASSAY NOTES: In vitro cytotoxic assay, PC-3; note: 0.1-25 µM tested
# Format: cell-based
# CONDITION: human, PC-3 cells (prostate cancer cell line)
VALUE KIND: IC50 at 48 h
The number alone won't do; follow it with the unit.

These recorded examples may help you get a feel for the data.
molecule="COc1cccc2c1C(=O)c1c(O)c3c(c(O)c1C2=O)C[C@@](O)(C(=O)CO)C[C@@H]3O[C@H]1C[C@H](N)[C@H](O)[C@H](C)O1 [Doxo, Doxorubicin, reference compound]" data_value="0.08 µM"
molecule="CC(=O)O[C@H]1C(=O)[C@@]2(C)[C@H]([C@H](OC(=O)c3ccccc3)[C@]3(O)C[C@H](OC(=O)[C@H](O)[C@@H](NC(=O)c4ccccc4)c4ccccc4)C(C)=C1C3(C)C)[C@]1(OC(C)=O)CO[C@@H]1C[C@@H]2O [Taxol, reference compound]" data_value="0.004 µM"
molecule="COC(=N)c1nc2ccc3ncnc(Nc4ccc(OC)cc4F)c3c2s1 [Compound II, reference compound]" data_value="4 µM"
molecule="COC(=N)c1nc2ccc3ncn(Cc4ccccc4)c(=O)c3c2s1 [Compound I, reference compound]" data_value="20 µM"

Please fill in: IC50 at 48 h reported for "COC(=N)c1nc2ccc3c(=O)n(Cc4ccccc4)cnc3c2s1" = 10 µM

Documented IC50 at 48 h of "N#Cc1nc2cc3c(=O)n(Cc4ccccc4)cnc3cc2s1" : 9 µM
